Molecular target: T1, human FGFR3b expressed with a C-terminal myc-myc-hexahistidine tag (hFGFR3b.mmH) (human)
T1 construct: also called REGN3152; monomeric human FGFR3b
T1 chain: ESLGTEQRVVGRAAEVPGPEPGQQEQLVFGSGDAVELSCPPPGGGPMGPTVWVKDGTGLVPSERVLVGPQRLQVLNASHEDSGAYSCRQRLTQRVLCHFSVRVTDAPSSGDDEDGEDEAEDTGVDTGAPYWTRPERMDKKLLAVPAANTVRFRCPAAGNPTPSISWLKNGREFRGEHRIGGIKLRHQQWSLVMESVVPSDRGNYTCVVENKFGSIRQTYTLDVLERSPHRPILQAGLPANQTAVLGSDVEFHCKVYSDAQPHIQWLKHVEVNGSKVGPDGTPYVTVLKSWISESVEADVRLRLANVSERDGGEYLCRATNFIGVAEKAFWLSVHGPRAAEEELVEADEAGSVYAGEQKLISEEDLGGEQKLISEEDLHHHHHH
Test: SPR Biacore, mAb captured on anti-hFc, 25C
Reported Kd values for a set of binders
Report field: quantity (unit follows the number).

Binder	Kd
H4H30061P (antibody, human IgG4 S228P, kappa, V domains shown) VH: EVQLVESGGGLAQPGGSLKLSCEASGFTFSDSAMHWVRQASGKGLEWVGRIRSKANSYATGYAASVKGRFTISRDDSKNMAFLEMNSLKTEDTAVYYCLRQTYGDPWGQGTLVTVSS VL: DVVMTQSPLSLSVTLGQPASISCRSSLSLVYSDGNNYLNWFQQRPGQSPRRLLYKVFNRDSGVPDRFSGSGSGTDFTLKISRVEAEDVGVYYCMQGTHWPWTFGQGTKVEIKR	0.506 nM

Kindly review the next binder as well.
Documented Kd of H4H30071P (antibody, human IgG4 S228P, kappa, V domains shown, HCVR 42, LCVR 50) VH: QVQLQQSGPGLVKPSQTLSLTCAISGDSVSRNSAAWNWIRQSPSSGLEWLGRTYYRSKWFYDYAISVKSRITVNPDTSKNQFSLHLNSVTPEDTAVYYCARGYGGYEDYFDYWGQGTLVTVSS VL: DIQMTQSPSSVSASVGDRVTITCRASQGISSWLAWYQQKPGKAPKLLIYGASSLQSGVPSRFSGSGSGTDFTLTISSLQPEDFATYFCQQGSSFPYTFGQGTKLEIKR : 0.137 nM

The values you see were collected from patent US20240158515A1.
